Reference source for all entries: the supplement of paper PMC7840683

# LDH release cytotoxicity annotations
# Test system: HepaRG
# ASSAY METHOD TEXT: LDH release cytotoxicity, % of total lysis control; higher = more cytotoxic
# CONDITION: 31.7809 µM; 48 h
Where a name gives a salt, the structure may show the parent alone.
MEASURED PROPERTY: LDH release cytotoxicity

>>> reported_result("N#Cc1nn(-c2c(Cl)cc(C(F)(F)F)cc2Cl)c(N)c1S(=O)C(F)(F)F (stereo not given)")
"19.3%"
>>> reported_result("OCCO")
"-1.26%"
>>> reported_result("CNC(=O)Oc1cccc(N=CN(C)C)c1 [Formetanate hydrochloride]")
"-6.15%"
>>> reported_result("CC(=O)O")
"-0.0673%"
>>> reported_result("CC1(c2ccc(Oc3ccccc3)cc2)OC(=O)N(Nc2ccccc2)C1=O (stereo not given)")
"18.1%"
